Measured fold change accompanies every entry in the list below.
method.summary: HSE-luciferase reporter activators – cell-based (AID 1611)
condition.info: human cells, HSE-luciferase heat shock reporter; stronger effect = higher value
endpoint.name: fold change

[[record]]
compound = "Cc1cc2c(C(C)C)c(O)c(O)c(C=O)c2c(O)c1-c1c(C)cc2c(C(C)C)c(O)c(O)c(C=O)c2c1O"
reported = 0.95

[[record]]
compound = "C=C[C@H]1CN2CC[C@H]1C[C@@H]2[C@H](O)c1ccnc2ccccc12"
reported = 1.18

[[record]]
compound = "Clc1ccc(COC(Cn2ccnc2)c2ccc(Cl)cc2Cl)c(Cl)c1 (stereo unspecified)"
reported = 0.8

[[record]]
compound = "CNC(C)C(O)c1ccccc1 (stereo unspecified)"
reported = 0.96

[[record]]
compound = "CC(=O)[O][Hg][c]1ccccc1"
reported = 1.14

[[record]]
compound = "CNC1(c2ccccc2Cl)CCCCC1=O (stereo unspecified)"
reported = 1.39

[[record]]
compound = "CC[C@@H]1/C=C/C=C/C[C@H](C)[C@@H](O)[C@](C)(O)C(=O)[C@H](C)[C@@H](O)[C@H](C)C(=O)[C@H](C)[C@@H](O)[C@H](C)/C=C/C(=O)O[C@H]2[C@@H](C)[C@@H](CC1)O[C@@]1(CC[C@@H](C)[C@@H](C[C@H](C)O)O1)[C@@H]2C"
reported = 1.06

[[record]]
compound = "N#C/C(=C\\c1ccc(O)cc1)C(=O)O"
reported = 1.34

[[record]]
compound = "CN(C)[C@@H]1C(=O)C(C(N)=O)=C(O)[C@@]2(O)C(=O)C3=C(O)c4c(O)cccc4[C@@](C)(O)[C@H]3[C@H](O)[C@@H]12"
reported = 1.27

[[record]]
compound = "C[C@H](N)[C@H](O)c1ccc(O)c(O)c1"
reported = 1.53

[[record]]
compound = "C[C@@H]([C@H](O)c1ccccc1)N(C)C"
reported = 1.08

